experiment: Protein binding; type: in vitro ADME; conditions: In vitro human plasma protein binding
Property: perc_recovered; scope: individual compounds
Entry rule: numbers only, all in %.

CNCc1cc(-c2cc3c(N[C@@H](c4ccc5c(c4)S(=O)(=O)CCC5)C(C)C)ncnc3[nH]2)co1: 78.61
CC(C)[C@H](Nc1ncnc2[nH]c(-c3cnn(C)c3C#N)cc12)c1ccc2c(n1)OCCO2: 113.8
CC(C)[C@@H](Nc1ncnc2[nH]c(-c3cnn(C)c3C#N)cc12)c1ccc2c(n1)OCCO2: 111.8

Now look at this one.
Enquiry: Query (compound): COc1ccc([C@H](Cc2nnn[nH]2)NC(=O)c2ncnc3[nH]ccc23)cc1 ; field requested: perc_recovered
Return: 102.0
